B1: TPR 5TU (parent)
chain: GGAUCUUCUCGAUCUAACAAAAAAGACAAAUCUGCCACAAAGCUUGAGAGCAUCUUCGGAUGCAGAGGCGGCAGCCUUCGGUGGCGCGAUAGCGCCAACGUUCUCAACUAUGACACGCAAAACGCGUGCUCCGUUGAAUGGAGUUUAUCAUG

Variants of: B1
Test: polymerase ribozyme fitness, log enrichment relative to wild type (log ratio); higher = more active; in vitro selection for triplet polymerase activity
This sample holds only a part of the variants without activity.
Readings of polymerase ribozyme fitness (log ratio) for the listed variants
Parameter Measured: polymerase ribozyme fitness (log ratio)

Mutation Annotation: A29U G59A G83C C125U
Parameter Measured: polymerase ribozyme fitness (log ratio)
Measured: ≤ -4.2
--
Mutation Annotation: A12G U13A A19C G92C C99U G124C U148G G152U
Parameter Measured: polymerase ribozyme fitness (log ratio)
Measured: ≤ -4.2
--
Mutation Annotation: C5U A23C A40C A49U G70C G94A
Parameter Measured: polymerase ribozyme fitness (log ratio)
Measured: ≤ -4.2
--
Mutation Annotation: U6A G88C C116U
Parameter Measured: polymerase ribozyme fitness (log ratio)
Measured: ≤ -4.2
--
Mutation Annotation: G50U C85A
Parameter Measured: polymerase ribozyme fitness (log ratio)
Measured: -1.4
--
Mutation Annotation: A64G A91C
Parameter Measured: polymerase ribozyme fitness (log ratio)
Measured: ≤ -4.2
--
Mutation Annotation: C96A C105U A122U
Parameter Measured: polymerase ribozyme fitness (log ratio)
Measured: 0.463
--
Mutation Annotation: A30G A47U A64G G94A
Parameter Measured: polymerase ribozyme fitness (log ratio)
Measured: -3.57
--
Mutation Annotation: C96A U104A G124C
Parameter Measured: polymerase ribozyme fitness (log ratio)
Measured: -1.19
--
Mutation Annotation: C38U U148C
Parameter Measured: polymerase ribozyme fitness (log ratio)
Measured: -1.36
--
Mutation Annotation: C51U A60G C85A
Parameter Measured: polymerase ribozyme fitness (log ratio)
Measured: -3.39
--
Mutation Annotation: U56A G62A C76U G81A C87U C95U
Parameter Measured: polymerase ribozyme fitness (log ratio)
Measured: -1.49
--
Mutation Annotation: U7A U44A
Parameter Measured: polymerase ribozyme fitness (log ratio)
Measured: ≤ -4.2
--
Mutation Annotation: G59U G94A A98G
Parameter Measured: polymerase ribozyme fitness (log ratio)
Measured: -1.07
--
Mutation Annotation: C5A A26U A52G G86A G88C A113U G141A
Parameter Measured: polymerase ribozyme fitness (log ratio)
Measured: ≤ -4.2
--
Mutation Annotation: C5G G50C C85U
Parameter Measured: polymerase ribozyme fitness (log ratio)
Measured: -3.69
--
Mutation Annotation: C14U A24C U53A G67U C108U A150G
Parameter Measured: polymerase ribozyme fitness (log ratio)
Measured: ≤ -4.2
--
Mutation Annotation: A16G A26U U31C U82A A106U C131A U139G G141C
Parameter Measured: polymerase ribozyme fitness (log ratio)
Measured: ≤ -4.2
--
Mutation Annotation: G46A U61G C103A C118G
Parameter Measured: polymerase ribozyme fitness (log ratio)
Measured: ≤ -4.2
--
Mutation Annotation: C96U C123U
Parameter Measured: polymerase ribozyme fitness (log ratio)
Measured: -0.655
--
Mutation Annotation: U82G A110G C125G A137U
Parameter Measured: polymerase ribozyme fitness (log ratio)
Measured: ≤ -4.2
--
Mutation Annotation: G71C C95A
Parameter Measured: polymerase ribozyme fitness (log ratio)
Measured: ≤ -4.2
--
Mutation Annotation: C93U G140U
Parameter Measured: polymerase ribozyme fitness (log ratio)
Measured: -3.59
--
Mutation Annotation: G50A C54U A91U C93U A107C C108A C132G A138U U148G
Parameter Measured: polymerase ribozyme fitness (log ratio)
Measured: ≤ -4.2
--
Mutation Annotation: A40C G50A
Parameter Measured: polymerase ribozyme fitness (log ratio)
Measured: -2.43
--
Mutation Annotation: C54U U148A
Parameter Measured: polymerase ribozyme fitness (log ratio)
Measured: -3.74
--
Mutation Annotation: C14G C32U G48A C103U U127C
Parameter Measured: polymerase ribozyme fitness (log ratio)
Measured: ≤ -4.2
--
Mutation Annotation: C51U C93A A150U
Parameter Measured: polymerase ribozyme fitness (log ratio)
Measured: -0.998
--
Mutation Annotation: A12U A17U A28C C43G C103G
Parameter Measured: polymerase ribozyme fitness (log ratio)
Measured: ≤ -4.2
--
Mutation Annotation: U6G G65U G71C G94A C103G A122G
Parameter Measured: polymerase ribozyme fitness (log ratio)
Measured: ≤ -4.2
--
Mutation Annotation: A19C G62C C72A C87A C131U U135A
Parameter Measured: polymerase ribozyme fitness (log ratio)
Measured: ≤ -4.2
--
Mutation Annotation: G46C U55G G58U
Parameter Measured: polymerase ribozyme fitness (log ratio)
Measured: -0.983
--
Mutation Annotation: A47U U56A C99G A121C
Parameter Measured: polymerase ribozyme fitness (log ratio)
Measured: -2.02
--
Mutation Annotation: C14A A16C G46A G67C C85A C95A
Parameter Measured: polymerase ribozyme fitness (log ratio)
Measured: ≤ -4.2
--
Mutation Annotation: U9G U31G G42U U53A G58C
Parameter Measured: polymerase ribozyme fitness (log ratio)
Measured: ≤ -4.2
--
Mutation Annotation: A17U A22U C51U U55A C75A C85U U101A C114U A115G G124A
Parameter Measured: polymerase ribozyme fitness (log ratio)
Measured: ≤ -4.2
--
Mutation Annotation: C14U C27U U90C A91U C116G
Parameter Measured: polymerase ribozyme fitness (log ratio)
Measured: -3.77
--
Mutation Annotation: G62C A106U C125U
Parameter Measured: polymerase ribozyme fitness (log ratio)
Measured: -3.86
--
Mutation Annotation: C14G C76G A89C C93G C95G U127G U151G
Parameter Measured: polymerase ribozyme fitness (log ratio)
Measured: ≤ -4.2
--
Mutation Annotation: A23U C96U
Parameter Measured: polymerase ribozyme fitness (log ratio)
Measured: -4.1
--
Mutation Annotation: G59U C93U C114G
Parameter Measured: polymerase ribozyme fitness (log ratio)
Measured: -3.92
--
Mutation Annotation: A106C C114A G140C G141C
Parameter Measured: polymerase ribozyme fitness (log ratio)
Measured: ≤ -4.2
--
Mutation Annotation: A40G U55A C76G G81A G86U C149U
Parameter Measured: polymerase ribozyme fitness (log ratio)
Measured: ≤ -4.2
--
Mutation Annotation: G50A A52C G81C
Parameter Measured: polymerase ribozyme fitness (log ratio)
Measured: -2.82
--
Mutation Annotation: C35A G58U
Parameter Measured: polymerase ribozyme fitness (log ratio)
Measured: -2.81
--
Mutation Annotation: A23U C36U C85A C96G A97U
Parameter Measured: polymerase ribozyme fitness (log ratio)
Measured: ≤ -4.2
